# STUDY_SYSTEM: human OX1 receptors (Homo sapiens, UniProt O43613)
# Sequence (O43613 1-425): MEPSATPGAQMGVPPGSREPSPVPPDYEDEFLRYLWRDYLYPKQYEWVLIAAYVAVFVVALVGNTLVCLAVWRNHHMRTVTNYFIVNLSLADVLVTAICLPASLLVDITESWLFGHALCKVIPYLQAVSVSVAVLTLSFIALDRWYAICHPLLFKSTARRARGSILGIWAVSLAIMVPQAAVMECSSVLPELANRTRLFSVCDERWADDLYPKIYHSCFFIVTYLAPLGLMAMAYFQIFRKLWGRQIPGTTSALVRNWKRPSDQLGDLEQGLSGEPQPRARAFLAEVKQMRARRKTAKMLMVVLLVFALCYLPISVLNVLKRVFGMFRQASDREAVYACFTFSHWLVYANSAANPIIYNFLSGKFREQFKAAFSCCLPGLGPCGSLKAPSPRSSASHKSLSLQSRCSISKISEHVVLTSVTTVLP
# ASSAY_NAME: Calcium mobilization Ke
# Format: cell-based
I'd be grateful if you could share measured Kb for these entries.
One number for each entry, in nM.

Known Kb results, listed for orientation:
- COMPOUND: "CCCCCCNC(=O)Nc1ccc2c(c1)CCN(CC(=O)NCc1ccccc1)C2Cc1ccc(OC)c(OC)c1 (centres unmarked) [28e]"
  SCALE_UNIT: "nM"
  Kb: 5230
- COMPOUND: "COc1ccc2c(c1)C(Cc1ccc(OC)c(OC)c1)N(CC(=O)NCc1ccccc1)CC2 (centres unmarked) [10a]"
  SCALE_UNIT: "nM"
  Kb: 512
- COMPOUND: "CCOC(=O)CNc1ccc2c(c1)CCN(CC(=O)NCc1ccccc1)C2Cc1ccc(OC)c(OC)c1 (centres unmarked) [26a]"
  SCALE_UNIT: "nM"
  Kb: 427

Kindly review the next compound as well.
Reported Kb for CCCOc1ccc2c(c1)C(Cc1ccc(OC)c(OC)c1)N(CC(=O)NCc1ccccc1)CC2 (centres unmarked) [10c] was 23.7
